biological target: Hck (UniProt P08631); experiment: phosphorylation enrichment, bacterial display (enrichment ratio); higher = better substrate or ligand; peptides without Tyr show the background;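 also: 11-residue human phosphosite peptides and single-mutation variants displayed on the E. coli surface, counted by deep sequencing, each peptide's frequency after selection divided by its frequency in the unselected input library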;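 also: frequency after pTyr selection over input frequency; kinase dosed for 20-30% of maximal phosphorylation in three min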
Sequence (P08631 whole entry, looked up): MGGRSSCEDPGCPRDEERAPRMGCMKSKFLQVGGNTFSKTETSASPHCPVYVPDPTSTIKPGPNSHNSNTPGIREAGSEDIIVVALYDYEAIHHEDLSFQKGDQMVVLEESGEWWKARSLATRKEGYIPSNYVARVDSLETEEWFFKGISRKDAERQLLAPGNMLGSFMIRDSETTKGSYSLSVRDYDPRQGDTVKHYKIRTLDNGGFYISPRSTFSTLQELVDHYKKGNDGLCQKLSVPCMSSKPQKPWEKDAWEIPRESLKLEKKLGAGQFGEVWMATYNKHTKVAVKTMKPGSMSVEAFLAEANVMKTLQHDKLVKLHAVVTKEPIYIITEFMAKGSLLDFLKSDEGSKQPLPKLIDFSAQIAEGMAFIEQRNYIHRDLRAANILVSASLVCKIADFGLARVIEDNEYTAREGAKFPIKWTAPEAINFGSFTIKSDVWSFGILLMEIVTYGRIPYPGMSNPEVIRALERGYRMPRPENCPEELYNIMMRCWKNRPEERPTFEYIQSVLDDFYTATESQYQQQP
This section presents sequences with their documented phosphorylation enrichment values.
Form field (numeric): enter value without unit.

Completed entries (count: 10):
RESIDUE STRING: RLEPVYFVAPA [LAMC2_Y250_D247E]
phosphorylation enrichment: 7.76
--
RESIDUE STRING: LPQDGYRIVQH [PTPRT_Y1329_R1324L]
phosphorylation enrichment: 0.418
--
RESIDUE STRING: KPGVNYFFRVS
phosphorylation enrichment: 0.479
--
RESIDUE STRING: EAVSIYQFHGQ [CBLC_Y402]
phosphorylation enrichment: 3.09
--
RESIDUE STRING: CNPLCYPTIMI [OR6K6_Y160_R159C]
phosphorylation enrichment: 0.442
--
RESIDUE STRING: KRYRIYHLAIS [BRCA2_Y3009_T3013I]
phosphorylation enrichment: 0.446
--
RESIDUE STRING: CTTIPYNYMCN [TP53_Y234_H233P]
phosphorylation enrichment: 0.433
--
RESIDUE STRING: IYQASYYRRGD [LTK_Y676_R673Q]
phosphorylation enrichment: 10.6
--
RESIDUE STRING: RRIHSYRGHVW [VHL_Y112_L116V]
phosphorylation enrichment: 0.736
--
RESIDUE STRING: QYPDVYAREEV [CRX_Y67]
phosphorylation enrichment: 2.18

Query :: Could you share which phosphorylation enrichment value was measured for PTYKHYANSTQ [SLC12A3_Y70_E68K] ?
Result :: 0.434

Query :: What do you get for FARNCYVAGQF [G6PD_Y107_S106C_YF] ?
Result :: 0.409

Query :: What do you get for SQGRQYQELPR [KCNH2_Y1009_R1005Q] ?
Result :: 0.668

Query :: What do you get for CEETFYTMKMN [MASP2_Y401_V405M] ?
Result :: 1.09

====

This section presents sequences with their documented phosphorylation enrichment values.
target: EPHB1 (UniProt P54762); test: phosphorylation enrichment, bacterial display (enrichment ratio); higher = better substrate or ligand; peptides without Tyr show the background
Sequence (P54762 whole entry, looked up): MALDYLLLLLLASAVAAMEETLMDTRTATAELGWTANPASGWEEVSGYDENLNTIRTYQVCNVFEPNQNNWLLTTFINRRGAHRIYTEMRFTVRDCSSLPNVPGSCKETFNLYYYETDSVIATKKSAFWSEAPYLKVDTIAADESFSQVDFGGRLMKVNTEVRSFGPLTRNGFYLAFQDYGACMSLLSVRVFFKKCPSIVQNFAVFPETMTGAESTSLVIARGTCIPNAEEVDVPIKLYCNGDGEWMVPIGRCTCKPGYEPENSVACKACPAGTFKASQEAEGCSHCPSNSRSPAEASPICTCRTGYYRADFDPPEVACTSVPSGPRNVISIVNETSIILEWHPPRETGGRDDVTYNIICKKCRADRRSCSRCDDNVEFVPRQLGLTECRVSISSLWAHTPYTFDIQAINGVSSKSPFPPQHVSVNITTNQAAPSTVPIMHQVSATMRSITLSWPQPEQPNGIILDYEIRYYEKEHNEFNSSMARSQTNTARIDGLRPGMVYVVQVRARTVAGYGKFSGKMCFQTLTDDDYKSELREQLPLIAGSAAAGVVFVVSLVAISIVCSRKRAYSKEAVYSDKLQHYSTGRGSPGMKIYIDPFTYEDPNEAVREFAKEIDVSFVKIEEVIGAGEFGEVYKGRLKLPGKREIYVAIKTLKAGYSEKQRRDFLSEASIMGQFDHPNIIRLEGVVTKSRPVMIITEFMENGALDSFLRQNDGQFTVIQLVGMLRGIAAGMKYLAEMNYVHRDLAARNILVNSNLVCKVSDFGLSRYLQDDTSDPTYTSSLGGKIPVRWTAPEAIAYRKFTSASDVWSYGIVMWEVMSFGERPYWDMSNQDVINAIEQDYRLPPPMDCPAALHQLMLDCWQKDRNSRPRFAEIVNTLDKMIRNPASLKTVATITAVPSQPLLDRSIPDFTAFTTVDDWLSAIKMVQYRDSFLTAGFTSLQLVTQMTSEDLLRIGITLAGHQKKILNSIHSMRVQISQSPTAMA

RESIDUE STRING: REGAKYVSHGA [ASS1_Y113]
phosphorylation enrichment: 0.553

Query :: Could you share which phosphorylation enrichment value was measured for RQIQSYTCEID [DES_Y331_H326R] ?
Result :: 0.522

Query :: What do you get for KLSFSYGWALQ [ALDOB_Y302_R304W] ?
Result :: 0.844

Query :: What do you get for DTKPAYQNLRQ [BOD1_Y82] ?
Result :: 0.38

Query :: What do you get for GFAGKYIAMVM [CYP19A1_Y441_C437Y_YF] ?
Result :: 0.41

Query :: What do you get for TLSGIYQYSIA [FOXL2_Y81_I84S] ?
Result :: 2.73

====

target: EPHB2 (UniProt P29323); assay: phosphorylation enrichment, bacterial display (enrichment ratio); higher = better substrate or ligand; peptides without Tyr show the background
Sequence (P29323 whole entry, looked up): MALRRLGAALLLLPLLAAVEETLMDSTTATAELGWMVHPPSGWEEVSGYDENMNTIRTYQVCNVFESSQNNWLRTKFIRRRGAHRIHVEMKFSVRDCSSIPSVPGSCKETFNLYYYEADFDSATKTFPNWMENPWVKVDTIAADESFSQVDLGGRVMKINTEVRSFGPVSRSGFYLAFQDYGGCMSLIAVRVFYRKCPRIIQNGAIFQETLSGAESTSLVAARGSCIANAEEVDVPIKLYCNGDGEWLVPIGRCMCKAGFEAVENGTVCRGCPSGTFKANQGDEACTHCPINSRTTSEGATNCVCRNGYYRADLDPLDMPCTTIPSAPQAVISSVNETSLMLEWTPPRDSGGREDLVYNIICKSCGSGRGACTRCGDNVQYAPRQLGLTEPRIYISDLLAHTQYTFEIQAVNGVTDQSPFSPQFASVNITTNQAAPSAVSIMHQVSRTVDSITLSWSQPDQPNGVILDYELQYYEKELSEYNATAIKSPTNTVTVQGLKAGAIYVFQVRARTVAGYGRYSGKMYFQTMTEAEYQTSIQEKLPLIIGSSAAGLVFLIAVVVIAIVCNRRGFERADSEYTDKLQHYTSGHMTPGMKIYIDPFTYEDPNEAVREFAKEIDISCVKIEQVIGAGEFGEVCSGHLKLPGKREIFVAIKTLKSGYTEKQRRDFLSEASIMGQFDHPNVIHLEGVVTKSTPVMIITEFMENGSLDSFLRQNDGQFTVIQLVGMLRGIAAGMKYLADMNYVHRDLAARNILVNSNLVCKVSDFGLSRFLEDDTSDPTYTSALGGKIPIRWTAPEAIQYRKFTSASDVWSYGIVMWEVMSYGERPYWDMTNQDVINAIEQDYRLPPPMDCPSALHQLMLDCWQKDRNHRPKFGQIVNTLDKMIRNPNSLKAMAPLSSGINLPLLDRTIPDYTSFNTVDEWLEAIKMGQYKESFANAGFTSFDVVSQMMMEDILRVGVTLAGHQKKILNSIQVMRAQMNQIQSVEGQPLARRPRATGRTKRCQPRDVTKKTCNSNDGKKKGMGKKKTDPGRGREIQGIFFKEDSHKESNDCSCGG
This section presents sequences with their documented phosphorylation enrichment values.
Form field (numeric): enter value without unit.

Completed entries (count: 4):
RESIDUE STRING: VSLEAYCKHKY [RXRA_Y403_A398V]
ASSAYED SYSTEM: EPHB2 (UniProt P29323)
phosphorylation enrichment: 0.584
--
RESIDUE STRING: QGRQTYLLQPA [DDR2_Y813_P815L]
ASSAYED SYSTEM: EPHB2 (UniProt P29323)
phosphorylation enrichment: 0.529
--
RESIDUE STRING: DDKQPYEKKAA [HMGB1_Y144]
ASSAYED SYSTEM: EPHB2 (UniProt P29323)
phosphorylation enrichment: 0.464
--
RESIDUE STRING: DNEALYDICFC [TUBB3_Y208_R213C]
ASSAYED SYSTEM: EPHB2 (UniProt P29323)
phosphorylation enrichment: 5.33

As a next step, examine the sequence that follows.
Query :: Could you share which phosphorylation enrichment value was measured for QNTGDYCDLFG [PTPN11_Y62_Y63C_YF] ?
Result :: 8.46
